test_system: T1, recombinant antigen of the extracellular region of CD47 (Sino Biological, Cat: 12283-H08H) (human, UniProt Q08722 19-139)
T1 construct: extracellular domain; also called recombinant CD47 extracellular region; CD47 recombinant protein
T1 sequence (Q08722 19-139 limits assumed): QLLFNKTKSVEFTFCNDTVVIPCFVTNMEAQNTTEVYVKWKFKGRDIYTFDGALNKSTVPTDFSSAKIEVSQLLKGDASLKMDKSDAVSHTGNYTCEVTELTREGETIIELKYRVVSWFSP
assay_info: Fortebio BLI, antibody on AHC sensor, CD47 extracellular region 100 nM;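 note: antibody held on the sensor through anti-human Fc capture, CD47 antigen in solution, association and dissociation phases each lasting 300 s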
Kindly supply the reported pKd values for the records listed here.
Give bare numbers, as −log10 of the molar value.

binder: hz140-Hm11/hz182-L (antibody, V domains shown) VH: QVQLVQSGAEVKKPGASVKVSCKASGYKFTNYVMSWVRQAPGQRLEWMGYINPYNDAIKYNEKFTGRVTITRDTSASTAYMELSSLRSEDTAVYYCAREGDFYANYGRLGFAYWGQGTLVTVSS VL: DIQMTQSPSSLSASVGDRVTITCRASQDISNYLNWYQQKPGKAPKLLLYYTSRLHSGVPSRFSGSGSGTDYTLTISSLQPEDFATYFCQQGAGRPYTFGGGTKVEIK
pKd: 8.19

binder: hz140-Hm8/hz182-L (antibody, V domains shown) VH: QVQLVQSGAEVKKPGASVKVSCKASGYKFTNYVMHWVRQAPGQRLEWMGYINPYNDGIKYNEKFTGRVTITRDTSASTAYMELSSLRSEDTAVYYCAREGDFYANYGRLGFDYWGQGTLVTVSS VL: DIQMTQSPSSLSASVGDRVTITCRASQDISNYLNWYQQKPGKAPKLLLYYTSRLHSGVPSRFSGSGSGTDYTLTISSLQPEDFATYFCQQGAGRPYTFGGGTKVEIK
pKd: 7.37

Shifting focus to the binder that follows.
Q: Fill in: pKd of hz140-Hm5/hz182-L (antibody, V domains shown) VH: QVQLVQSGAEVKKPGASVKVSCKASGYKFTNYVMHWVRQAPGQRLEWMGWINPYNDGIKYNEKFTGRVTITRDTSASTAYMELSSLRSEDTAVYYCAREGDFYANYGRLGFAYWGQGTLVTVSS VL: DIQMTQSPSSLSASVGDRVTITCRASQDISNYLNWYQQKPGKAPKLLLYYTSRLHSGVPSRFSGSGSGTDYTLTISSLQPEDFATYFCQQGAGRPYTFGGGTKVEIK is ___
Result: 8.17
